Biological target: Mitogen-activated protein kinase 14 (Homo sapiens, UniProt Q16539)
Sequence (Q16539 whole entry): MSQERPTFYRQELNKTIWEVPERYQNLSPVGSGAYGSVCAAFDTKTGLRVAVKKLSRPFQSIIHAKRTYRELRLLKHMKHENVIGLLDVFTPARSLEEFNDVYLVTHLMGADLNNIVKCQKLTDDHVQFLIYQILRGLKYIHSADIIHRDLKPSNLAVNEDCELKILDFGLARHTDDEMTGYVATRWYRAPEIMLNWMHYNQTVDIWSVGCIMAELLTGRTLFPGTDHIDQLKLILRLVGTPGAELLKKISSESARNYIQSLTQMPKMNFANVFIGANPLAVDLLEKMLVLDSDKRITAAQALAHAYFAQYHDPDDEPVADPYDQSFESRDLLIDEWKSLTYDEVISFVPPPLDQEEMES
Experiment: Inhibition of p38 alpha (unknown origin) assessed as residual activity at 1 uM relative to control
outcome-measure: Activity (%)

(P) COc1cccc(Nc2c[nH]c(=O)c(-c3cccc4[nH]ccc34)c2)c1
(Q) O=c1[nH]cc(Nc2cccc(Br)c2)cc1-c1cccc2[nH]ccc12
(R) CCOC(=O)c1cccc(Nc2c[nH]c(=O)c(-c3cccc4[nH]ccc34)c2)c1
# desc sort on Activity across 3 compounds List the labels, following the order given in the request.
R, P, Q
(R: 81%, P: 50%, Q: 31%)

(P) O=c1[nH]cc(Nc2ccccc2)cc1-c1cccc2[nH]ccc12
(Q) Cc1ccccc1Nc1c[nH]c(=O)c(-c2cccc3[nH]ccc23)c1
Record comparison, field Activity: mark the lower of P and Q . Which one? Tell me its label.
Q

Reference source: ChEMBL document CHEMBL4842355
